Target: TDO2 (Homo sapiens)
Construct: decreased levels of NFK in SW48 cells (high TDO expressing cells)
Assay: TDO2 cell assay (NFK GreenScreen, SW48 cells)
Format: cell-based
Settings: SW48 cells (high TDO expressing), 200 uM tryptophan, 24 hours; Table 3; read-out: TDO2 Cell Fluor EC50
readout: EC50 (µM)

(1) CC(C)(C)OC(=O)N1CCC(O)C(C2c3ccccc3-c3cncn32)C1 (single isomer, unassigned) [Example 11d]
(2) OC1C(C2c3ccc(F)cc3-c3cncn32)CC12CCOCC2 (single isomer, unassigned) [Example 109d]
(3) CCS(=O)(=O)N1CCC2(CCC(C3c4ccccc4-c4cncn43)C2O)CC1 (single isomer, unassigned) [Example 76d]
IN: Arrange the 3 compounds by rising EC50, starting with the smallest. Output spec: a listing of the labels in the requested order.
OUT: 2, 3, 1

----------
Target: TDO2 (Homo sapiens)
Construct: decreased levels of NFK in SW48 cells (high TDO expressing cells)
Assay: TDO2 cell assay (NFK GreenScreen, SW48 cells)
Format: cell-based
Conditions: SW48 cells (high TDO expressing), 200 uM tryptophan, 24 hours; Table 3; read-out: TDO2 Cell Fluor EC50
readout: EC50 (µM)

(a) NC(=O)c1ccc2c(n1)CCC(C1c3ccccc3-c3cncn31)C2O (single isomer, unassigned) [Example 104h]
(b) CS(=O)(=O)N1CCC(C2c3ccccc3-c3cncn32)C(O)C1 (single isomer, unassigned) [Example 79a]
(c) OC1c2ccccc2CCC1C1c2ccccc2-c2cncn21 (single isomer, unassigned) [Example 102c]
(d) O[C@H]1CCC[C@H]1[C@@H]1c2ccccc2-c2cncn21 [Example 02d]
IN: Which order do the items above take when sorted by EC50 from high to low? Output spec: a listing of the labels in the requested order.
OUT: a, d, b, c
(a: 20 µM, d: 14 µM, b: 8.1 µM, c: 0.32 µM)

----------
Target: TDO2 (Homo sapiens)
Construct: decreased levels of NFK in SW48 cells (high TDO expressing cells)
Assay: TDO2 cell assay (NFK GreenScreen, SW48 cells)
Format: cell-based
Details: SW48 cells (high TDO expressing), 200 uM tryptophan, 24 hours; Table 3; read-out: TDO2 Cell Fluor EC50
readout: EC50 (µM)

- molecule: "OC1c2cccnc2CCC1C1c2ccc(F)cc2-c2cncn21 (single isomer, unassigned) [Example 169a]"
  u: "µM"
  EC50: 0.21

(I) OC1CCC(F)(F)CC1C1c2ccccc2-c2cncn21 (single isomer, unassigned) [Example 18g]
(II) N#Cc1ccc2c(c1)C(O)C(C1c3ccccc3-c3cncn31)CC2 (single isomer, unassigned) [Example 113g]
IN: Which record shows the lower EC50: the first, I , or the second, II ? To answer, give the label that identifies your chosen option.
OUT: I

----------
Target: TDO2 (Homo sapiens, UniProt P48775)
Construct: decreased levels of NFK in SW48 cells (high TDO expressing cells)
Sequence (P48775 whole entry): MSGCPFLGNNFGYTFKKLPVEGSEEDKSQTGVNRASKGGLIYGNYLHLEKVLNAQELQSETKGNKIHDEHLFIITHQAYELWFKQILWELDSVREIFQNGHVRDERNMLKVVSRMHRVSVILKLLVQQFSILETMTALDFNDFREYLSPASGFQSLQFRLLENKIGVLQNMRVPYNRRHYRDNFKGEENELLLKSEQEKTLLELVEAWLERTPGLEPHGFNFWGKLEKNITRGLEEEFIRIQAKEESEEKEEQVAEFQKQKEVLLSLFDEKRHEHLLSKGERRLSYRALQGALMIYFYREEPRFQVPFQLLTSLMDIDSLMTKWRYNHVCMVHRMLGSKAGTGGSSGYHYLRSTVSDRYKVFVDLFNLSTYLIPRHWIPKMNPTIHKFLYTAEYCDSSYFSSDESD
Experiment: TDO2 cell assay (NFK GreenScreen, SW48 cells)
Assay type: cell-based
Conditions: SW48 cells (high TDO expressing), 200 uM tryptophan, 24 hours; Table 3; read-out: TDO2 Cell Fluor EC50
pEC50: −log10 of the molar value.
readout: pEC50

- molecule: "CC(C)C(O)C1c2ccccc2-c2cncn21 (single isomer, unassigned) [Example 51d]"
  readout: "pEC50"
  measuredValue: 4.85

(P) CC(C)(C)OC(=O)N1CCC(C2c3ccccc3-c3cncn32)C(O)C1 (single isomer, unassigned) [Example 10c]
(Q) OC1c2ccnn2CCC1C1c2ccccc2-c2cncn21 (single isomer, unassigned) [Example 56f]
(R) OC1c2cncn2CCC1C1c2ccccc2-c2cncn21 (single isomer, unassigned) [Example 07e]
(S) CC(C)S(=O)(=O)N1CC[C@@H]([C@H]2c3ccccc3-c3cncn32)[C@H](O)C1 (single isomer, unassigned) [Example 80b]
IN: Sort low-to-high on pEC50, please. Output spec: a listing of the labels in the requested order.
OUT: P, Q, R, S
